Where do these numbers come from? They come from paper PMC2647295.

# measured_target: MUC1-5TR (unglycosylated, five MUC1 tandem repeats) (UniProt P15941 126-225)
# Sequence (P15941 126-225): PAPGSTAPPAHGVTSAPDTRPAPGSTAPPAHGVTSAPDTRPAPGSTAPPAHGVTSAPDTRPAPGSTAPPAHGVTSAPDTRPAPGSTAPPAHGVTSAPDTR
# protocol: SPR
Kd: recorded values
experimental_endpoint: Kd (nM)

>  <binder>
GGCTATAGCACATGGGTAAAACGAC (ssDNA) [5TR2]

>  <experimental_endpoint>
Kd

>  <test_result>
85.2

$$$$
>  <binder>
GAAGTGAAAATGACAGAACACAACA (ssDNA) [5TR1]

>  <experimental_endpoint>
Kd

>  <test_result>
21

$$$$
>  <binder>
CAAACAATCAAACAGCAGTGGGGTG (ssDNA) [5TR3]

>  <experimental_endpoint>
Kd

>  <test_result>
83

$$$$
>  <binder>
TACTGCATGCACACCACTTCAACTA (ssDNA) [5TR4]

>  <experimental_endpoint>
Kd

>  <test_result>
69

$$$$
